System: UniProt:P39900 | Read-out: IC50
Sequence (P39900 whole entry): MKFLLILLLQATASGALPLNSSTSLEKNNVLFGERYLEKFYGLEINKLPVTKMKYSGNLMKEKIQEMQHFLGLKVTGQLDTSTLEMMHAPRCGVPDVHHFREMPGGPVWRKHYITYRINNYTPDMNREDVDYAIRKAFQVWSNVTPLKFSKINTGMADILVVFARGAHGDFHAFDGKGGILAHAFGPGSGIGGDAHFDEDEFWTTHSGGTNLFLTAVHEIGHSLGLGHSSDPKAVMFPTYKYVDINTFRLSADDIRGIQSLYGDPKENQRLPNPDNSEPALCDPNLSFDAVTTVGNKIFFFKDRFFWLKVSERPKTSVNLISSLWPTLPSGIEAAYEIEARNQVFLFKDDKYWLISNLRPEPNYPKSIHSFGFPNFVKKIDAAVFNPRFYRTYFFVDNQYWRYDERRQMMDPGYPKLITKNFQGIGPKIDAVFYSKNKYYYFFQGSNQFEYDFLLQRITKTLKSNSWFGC
ASSAY ENDPOINT: IC50 (µM)

>  <MOLECULAR STRING>
COc1cc(NC(=S)NNC(=O)c2cc(Br)c(Br)n2C)cc(OC)c1OC

>  <ASSAY ENDPOINT>
IC50

>  <UNIT SYMBOL>
µM

>  <REPORTED>
23.8

$$$$
>  <MOLECULAR STRING>
O=C(NNC(=S)Nc1ccc(Cl)cc1)c1cc(Br)c(Br)[nH]1

>  <ASSAY ENDPOINT>
IC50

>  <UNIT SYMBOL>
µM

>  <REPORTED>
29

$$$$
